B1: CRYL1 (parent)
chain: RNALENIRKEMKLLEQAGSLKGSL

- Variants of: B1
- EXPERIMENT_SUMMARY: protein stability index of a GFP-peptide fusion (GPS, HEK-293T) (PSI 1-6); higher = more stable;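 also: lentivirally expressed fusions sorted by FACS into six bins by GFP to DsRed ratio, PSI derived from sequencing read proportions per bin multiplied by bin number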
- STUDY_CONDITIONS: c terminus: a fixed tail appended
Each entry belongs to exactly one class, chosen by where its protein stability index falls: lo: < 3; mid: ≥ 3 and < 4; hi: ≥ 4

> print(dat)
    mutation.descriptor  class.label
 1                 L20K           hi
 2                 K21I           lo
 3                 L14D           hi
 4                  N6W           lo
 5                 K12A          mid
 6                 K12L          mid
 7                 E15K           lo
 8                 L20F           lo
 9                 L13I          mid
10                  N2I           lo
11                 S19I           lo
12                  L4V          mid
13                  E5K           lo
14                 L13P           hi
15                 E15I           lo
16                 K21P           lo
17                 L14Y          mid
18                  R1E          mid
19                 L14Q           hi
20                 L13N          mid
21                 E15V           lo
22                 E15C          mid
23                 A17E          mid
24                  R1V          mid
25                 Q16C          mid
26                  N2P           hi
27                 K12N          mid
28                 L20N           hi
29                 E10S           lo
30                  A3T           hi
31                 E15P          mid
32                  R8A          mid
33                 E10K           lo
34                  N6C           lo
35                  N6G          mid
36                  R1F           lo
37                 G22K           hi
38                 G18M           lo
39                  K9T          mid
